Entry source: ChEMBL document CHEMBL1201862

Molecular target: Heat shock factor protein 1 (Mus musculus)
Sequence (P38532 whole entry): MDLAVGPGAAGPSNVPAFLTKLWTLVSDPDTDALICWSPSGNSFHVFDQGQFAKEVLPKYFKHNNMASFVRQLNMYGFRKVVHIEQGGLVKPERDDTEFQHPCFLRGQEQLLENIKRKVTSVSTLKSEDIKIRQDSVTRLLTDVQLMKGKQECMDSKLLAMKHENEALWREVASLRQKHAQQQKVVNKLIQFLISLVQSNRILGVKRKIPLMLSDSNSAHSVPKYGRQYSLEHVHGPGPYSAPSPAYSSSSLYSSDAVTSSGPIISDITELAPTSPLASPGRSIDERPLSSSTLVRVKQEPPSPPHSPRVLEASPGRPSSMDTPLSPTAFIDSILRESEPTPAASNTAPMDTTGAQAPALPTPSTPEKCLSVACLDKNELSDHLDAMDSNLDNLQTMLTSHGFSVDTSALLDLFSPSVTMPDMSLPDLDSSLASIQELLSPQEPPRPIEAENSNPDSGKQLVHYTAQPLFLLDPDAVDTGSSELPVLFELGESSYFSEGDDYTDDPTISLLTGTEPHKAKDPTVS
Experiment: HSF1 potentiators in luciferase reporter cells, confirmation, cell-based, NIH3T3, luminescence, dose retest (AID 435004);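 note: stress induced by proteasome inhibitor MG132 added 30 min after compound; luciferase reporter driven by HSF1 response element in NIH3T3 cells; actives raise luminescence as potentiators of the MG132 stress response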
Format: functional
Activity calls are given as the source filed them.
API: response.call in active, inactive

Ask: Kindly provide the recorded test outcome for the following compound: O=C(COC(=O)c1ccc(S(=O)(=O)NCc2ccco2)cc1)Nc1ccccc1OC(F)F
Result: inactive

Ask: Field entry: Cc1ccc(C)c(S(=O)(=O)N2CCCCC2CCNC(=O)C(=O)NCCc2ccco2)c1 (stereo not given)
Result: inactive

Ask: Field entry: CN(Cc1cccc2cnccc12)C(=O)c1cc(COc2ccc(F)cc2F)on1
Result: inactive

Ask: Field entry: O=C(CSc1ccc(Cl)cc1)N1CCN(c2c(Cl)cccc2[N+](=O)[O-])CC1
Result: active

Ask: Field entry: CC1(C)CC(CCN)(Cc2ccccc2Cl)CCO1 (stereo not given)
Result: inactive

###

Target: Zinc finger protein mex-5 (Caenorhabditis elegans)
Sequence (Q9XUB2 whole entry): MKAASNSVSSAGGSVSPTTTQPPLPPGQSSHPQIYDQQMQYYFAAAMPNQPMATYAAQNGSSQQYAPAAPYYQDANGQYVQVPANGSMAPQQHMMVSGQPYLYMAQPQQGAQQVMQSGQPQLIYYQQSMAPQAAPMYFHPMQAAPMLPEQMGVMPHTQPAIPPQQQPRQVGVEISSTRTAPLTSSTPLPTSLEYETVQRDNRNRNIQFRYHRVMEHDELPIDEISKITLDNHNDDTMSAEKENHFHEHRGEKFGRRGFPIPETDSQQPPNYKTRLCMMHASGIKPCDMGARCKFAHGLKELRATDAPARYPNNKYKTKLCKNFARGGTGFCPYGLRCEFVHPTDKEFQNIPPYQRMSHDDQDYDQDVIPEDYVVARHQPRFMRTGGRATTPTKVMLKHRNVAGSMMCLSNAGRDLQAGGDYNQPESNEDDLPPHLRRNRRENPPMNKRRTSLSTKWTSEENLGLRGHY
Experiment: MEX-5/TCR-2 RNA interaction inhibitors, dose response, biochemical, C. elegans, fluorescence polarization (AID 1960)
Activity calls are given as the source filed them.
REPORTED METRIC: EC50

Ask: # returns recorded EC50 (system: Zinc finger protein mex-5 (Caenorhabditis elegans)) for O=C(O)CCNc1ccc(NCCC(=O)O)c2c1C(=O)c1ccccc1C2=O
Result: 15.3 µM (inconclusive)

Ask: Field entry: COc1cc(-c2cc(=O)c3c(O)c(OC)c(OC)c(O)c3o2)ccc1O
Result: 7.08 µM (inconclusive)

Ask: Field entry: CCCCC1=CC2=CC(=O)C(C)(OC(=O)c3cccs3)C(=O)C2=CO1 (stereo not given)
Result: 30.9 µM (active)

Ask: Field entry: COc1ccc(C2=CC3=C(Br)C(=O)C(C)(OC(=O)C4CCCC4)C(=O)C3=CO2)cc1 (stereo not given)
Result: > 300 µM (not active)

Ask: Field entry: O=[N+]([O-])c1ccc(C2=Nc3cc(Cl)ccc3OC2)cc1
Result: > 300 µM (inconclusive)

###

System: Streptococcus
Assay: Group A Streptococcus viability loss, dose response, counter-screen for streptokinase expression inhibitor project, luminescence, BacTiterGlo (AID 1915);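 note: potency for reduction of bacterial viability or growth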
Format: functional, organism-based
Calls of active or inactive are those of the source.
I'd be grateful if you could share measured EC50 for these entries.

Ask: # query: EC50 of entry CCCn1c(NC(=O)c2ccccc2)nc2ccccc21
Result: > 150 µM (not active)

Ask: Field entry: CC(C)Cn1c(=O)c(C(=O)Nc2ccncc2)c(O)c2ccccc21
Result: 7.31 µM (active)

Ask: Field entry: COCCCn1c(=O)/c(=C\c2ccccc2OC(C)C)s/c1=C(/C#N)C(=O)Nc1ccc(C(=O)O)cc1
Result: > 50 µM (not active)

Ask: Field entry: O=C(N/N=C/c1cc(Br)ccc1O)c1ccncc1
Result: 3.78 µM (active)

Ask: Field entry: CCOC(=O)c1ccc(NC(=O)c2[nH]cnc2C(=O)N[C@@H](CCCCNC(=O)OC(C)(C)C)C(=O)OC(C)(C)C)cc1
Result: 55.6 µM (active)

###

I'd be grateful if you could share measured IC50 for these entries.
Molecular target: Polyadenylate-binding protein 1 (Homo sapiens, UniProt P11940)
Sequence (P11940 whole entry): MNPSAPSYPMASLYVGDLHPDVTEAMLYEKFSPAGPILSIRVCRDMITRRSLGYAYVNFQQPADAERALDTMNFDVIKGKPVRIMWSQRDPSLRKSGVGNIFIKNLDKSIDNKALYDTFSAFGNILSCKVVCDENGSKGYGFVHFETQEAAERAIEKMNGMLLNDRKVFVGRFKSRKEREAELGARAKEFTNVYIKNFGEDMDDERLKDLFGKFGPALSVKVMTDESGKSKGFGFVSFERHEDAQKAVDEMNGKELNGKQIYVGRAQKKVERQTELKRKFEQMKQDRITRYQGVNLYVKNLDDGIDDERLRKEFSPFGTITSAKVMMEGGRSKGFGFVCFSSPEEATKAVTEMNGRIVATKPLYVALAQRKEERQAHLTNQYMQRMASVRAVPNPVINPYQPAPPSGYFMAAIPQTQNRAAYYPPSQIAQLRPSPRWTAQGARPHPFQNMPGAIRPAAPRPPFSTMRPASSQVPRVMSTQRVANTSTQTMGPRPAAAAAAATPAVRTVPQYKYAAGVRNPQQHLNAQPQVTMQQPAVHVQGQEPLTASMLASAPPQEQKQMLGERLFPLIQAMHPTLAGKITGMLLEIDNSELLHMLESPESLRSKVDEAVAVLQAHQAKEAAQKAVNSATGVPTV
Experiment: PABP1 MLLE–PAM2 interaction inhibitors, dose response, miRNA deadenylation inhibitor project, biochemical, fluorescence polarization, Cy5-PAM2 peptide, secondary (AID 602260)
Assay type: functional
Conditions: read-out: IC50_Mean
The source made the active and inactive calls.

Ask: # query: IC50 of entry CC(=O)c1cccc(NC(=S)NC(=O)c2ccc(Br)cc2)c1
Result: > 66 µM (inactive)

Ask: Field entry: CCCCC1=CC2=CC(=O)C(C)(OC(=O)CC)C(=O)C2=CN1CCCCO (stereo not drawn)
Result: > 66 µM (inactive)

Ask: Field entry: COc1ccc(CC2C(=O)N(C)C(=O)N(C)C2=O)c(OC)c1
Result: > 66 µM (inactive)

Ask: Field entry: N#CCCN(C(=S)NC(=O)c1ccco1)c1ccccc1F
Result: > 66 µM (inactive)

Ask: Field entry: O=C(CC(SCCO)c1ccc2c(c1)OCO2)c1cccs1 (stereo not drawn)
Result: > 66 µM (inactive)

Ask: Field entry: CC(CNc1ccccc1O)C(=O)O (stereo not drawn)
Result: > 66 µM (inactive)

Ask: Field entry: COCCN1CN(S(=O)(=O)c2ccccc2)c2nc3ccccc3nc21
Result: > 66 µM (inactive)

Ask: Field entry: ON=CN=C(S)Nc1ncc(C(F)(F)F)cc1Cl
Result: > 66 µM (inactive)

###

Target: Caspase-6 (Homo sapiens, UniProt P55212)
Test: human caspase-6 inhibitors, dose response, biochemical, VEID-R110 fluorescence, cherry-pick (AID 720632)
Active and inactive are the calls of the source.
I'd be grateful if you could share measured AC50 for these entries.

Ask: # query: AC50 of entry O=C(NNC(=O)c1ccccc1F)c1cccc(-n2cccc2)c1
Result: 1.2 µM (active)

Ask: Field entry: CC(CNc1ccccc1O)C(=O)O (stereo not given)
Result: 3.52 µM (active)

Ask: Field entry: Oc1ccc(NCc2cccc(OCc3ccc(F)cc3)c2)cc1
Result: 6.29 µM (active)

Ask: Field entry: O=S(=O)(c1ccc(F)cc1)c1snnc1-c1ccccc1
Result: 6.26 µM (active)

Ask: Field entry: Oc1cc2c(cc1O)[C@H]1c3ccc(O)c(O)c3OC[C@@]1(O)C2
Result: 3.95 µM (active)

###

I'd be grateful if you could share measured AC50 for these entries.
Molecular target: UniProt P05177
Sequence (P05177 whole entry): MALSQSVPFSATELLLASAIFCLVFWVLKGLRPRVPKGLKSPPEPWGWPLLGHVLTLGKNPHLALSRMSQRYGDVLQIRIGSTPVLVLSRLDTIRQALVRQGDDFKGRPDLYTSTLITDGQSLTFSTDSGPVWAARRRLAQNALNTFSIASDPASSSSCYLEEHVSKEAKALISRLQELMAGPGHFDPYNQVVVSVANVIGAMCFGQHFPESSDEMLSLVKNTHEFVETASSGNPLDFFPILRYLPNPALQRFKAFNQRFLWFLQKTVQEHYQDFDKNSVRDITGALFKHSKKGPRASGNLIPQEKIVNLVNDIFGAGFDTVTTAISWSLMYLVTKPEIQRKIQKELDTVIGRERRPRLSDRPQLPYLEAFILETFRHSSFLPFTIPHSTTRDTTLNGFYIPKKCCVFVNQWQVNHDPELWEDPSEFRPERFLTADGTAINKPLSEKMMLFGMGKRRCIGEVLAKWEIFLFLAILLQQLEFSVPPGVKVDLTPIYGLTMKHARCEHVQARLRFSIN

Ask: # query: AC50 of entry c1ccc(CCNCc2ccco2)nc1
Result: 6.31 µM (inconclusive)

Ask: Field entry: Cc1nc2cnc(Oc3ccccc3)nc2n(CCC#N)c1=O
Result: 20 µM (inconclusive)

Ask: Field entry: Cc1ccc(C(=N)c2ccccc2Cc2cccc3ccccc23)c2ccccc12
Result: 1 µM (inconclusive)

Ask: Field entry: COc1ccc(Oc2ncc3nc(-c4ccc(OC)cc4)c(=O)n(C)c3n2)cc1
Result: 3.16 µM (inconclusive)

Ask: Field entry: Ic1ccccc1CN[C@@H]1C2CCN(CC2)[C@H]1C(c1ccccc1)c1ccccc1
Result: 12.6 µM (inconclusive)

Ask: Field entry: COc1ccc(C(=O)C(OC(=O)CNC(=O)c2ccco2)c2ccccc2)cc1 (stereo unspecified)
Result: 31.6 µM (inconclusive)

###

Biological target: UniProt P9WMR3
Assay: DnaB intein splicing inhibitors, dose response, biochemical, cell-free fluorescence (AID 449749)
Type: functional
Active and inactive are the calls of the source.
API: response.call in active, inactive

Ask: Kindly provide the recorded test outcome for the following compound: CC1=CC(C)(C)N2C(=O)/C(=N/c3ccc(O)cc3)c3cccc1c32
Result: inactive

Ask: Field entry: Cn1c(-c2ccccc2)c(C(=O)CCl)c2ccccc21
Result: active

Ask: Field entry: CC1=NN(c2ccccc2)C(=O)/C1=C\c1cn(C)c2ccccc12
Result: active

Ask: Field entry: CNc1cc(Cl)c2nonc2c1[N+](=O)[O-]
Result: active

Ask: Field entry: O=c1c(Cl)c(NCCCO)cnn1-c1nc2ccccc2[nH]1
Result: inactive

Ask: Field entry: CC(CNc1ccccc1O)C(=O)O (stereo unspecified)
Result: active

###

I'd be grateful if you could share measured EC50 for these entries.
Target: Peroxisome proliferator-activated receptor gamma/Nuclear receptor coactivator 1 (Homo sapiens, UniProt P37231)
Sequence (P37231 whole entry): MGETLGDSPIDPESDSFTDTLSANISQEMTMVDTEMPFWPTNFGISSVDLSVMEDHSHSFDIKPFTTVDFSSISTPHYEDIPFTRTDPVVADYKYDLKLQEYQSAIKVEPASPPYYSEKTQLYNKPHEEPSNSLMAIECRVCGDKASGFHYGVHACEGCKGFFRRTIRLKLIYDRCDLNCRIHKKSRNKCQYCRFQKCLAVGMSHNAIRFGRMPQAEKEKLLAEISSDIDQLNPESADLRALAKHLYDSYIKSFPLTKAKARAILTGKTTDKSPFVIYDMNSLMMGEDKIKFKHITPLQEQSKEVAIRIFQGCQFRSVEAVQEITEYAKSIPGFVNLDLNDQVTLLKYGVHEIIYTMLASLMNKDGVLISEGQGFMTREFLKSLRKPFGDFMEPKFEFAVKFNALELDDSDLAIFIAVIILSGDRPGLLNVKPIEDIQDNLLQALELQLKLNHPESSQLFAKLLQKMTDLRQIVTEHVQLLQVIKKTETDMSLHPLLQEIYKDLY
Sequence (Q15788 whole entry, further chain): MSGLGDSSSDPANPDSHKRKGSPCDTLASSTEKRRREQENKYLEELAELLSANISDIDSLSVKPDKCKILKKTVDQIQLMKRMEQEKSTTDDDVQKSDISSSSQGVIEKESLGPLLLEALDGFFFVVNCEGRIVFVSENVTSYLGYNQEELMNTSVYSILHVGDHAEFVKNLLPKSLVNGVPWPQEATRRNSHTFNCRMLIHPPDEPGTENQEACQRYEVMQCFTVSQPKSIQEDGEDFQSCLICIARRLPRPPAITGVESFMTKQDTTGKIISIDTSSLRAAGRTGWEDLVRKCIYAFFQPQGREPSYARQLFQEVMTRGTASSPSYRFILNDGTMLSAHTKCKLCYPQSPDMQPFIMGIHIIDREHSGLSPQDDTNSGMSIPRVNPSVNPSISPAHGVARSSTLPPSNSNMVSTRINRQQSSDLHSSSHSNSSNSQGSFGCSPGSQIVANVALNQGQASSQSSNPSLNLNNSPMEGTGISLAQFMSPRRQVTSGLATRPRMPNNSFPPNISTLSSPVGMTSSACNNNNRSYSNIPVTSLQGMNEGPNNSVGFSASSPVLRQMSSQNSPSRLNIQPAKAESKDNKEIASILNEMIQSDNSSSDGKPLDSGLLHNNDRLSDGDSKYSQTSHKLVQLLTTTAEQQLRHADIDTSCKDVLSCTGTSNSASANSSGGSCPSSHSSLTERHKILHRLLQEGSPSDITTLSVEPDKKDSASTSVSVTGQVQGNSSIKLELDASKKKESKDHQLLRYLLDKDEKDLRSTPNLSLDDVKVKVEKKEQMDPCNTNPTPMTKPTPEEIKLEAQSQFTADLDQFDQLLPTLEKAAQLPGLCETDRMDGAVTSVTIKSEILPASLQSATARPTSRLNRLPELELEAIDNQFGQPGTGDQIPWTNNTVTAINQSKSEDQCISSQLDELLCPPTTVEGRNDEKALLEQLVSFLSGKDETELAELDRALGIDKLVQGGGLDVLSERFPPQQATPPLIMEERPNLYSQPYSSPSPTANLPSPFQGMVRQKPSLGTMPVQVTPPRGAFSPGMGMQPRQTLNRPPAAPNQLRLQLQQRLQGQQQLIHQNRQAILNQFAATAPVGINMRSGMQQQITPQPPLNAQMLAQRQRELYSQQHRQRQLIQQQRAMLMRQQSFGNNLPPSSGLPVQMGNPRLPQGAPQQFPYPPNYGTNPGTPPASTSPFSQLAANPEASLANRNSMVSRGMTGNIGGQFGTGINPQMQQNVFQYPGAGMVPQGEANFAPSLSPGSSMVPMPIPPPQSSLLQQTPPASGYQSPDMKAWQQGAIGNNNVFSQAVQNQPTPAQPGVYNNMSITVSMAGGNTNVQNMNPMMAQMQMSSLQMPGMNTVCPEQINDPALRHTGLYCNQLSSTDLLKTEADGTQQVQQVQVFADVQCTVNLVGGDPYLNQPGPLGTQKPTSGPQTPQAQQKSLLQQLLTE
Test: TR-FRET dose response biochemical High Throughput Screening assay for agonists of the steroid receptor coactivator 1 (SRC-1) recruitment by the peroxisome proliferator-activated receptor gamma (PPAR gamma): non-selective agonists. [Related pubchem assays (depositor defined):AID1300, AID1808, AID504735, AID631]
Format: protein assay
Calls of active or inactive are those of the source.

Ask: # query: EC50 of entry CCOC(=O)N1CCC(NC(=O)CSc2cc(=O)n(CC)c3ccccc23)CC1
Result: > 79.4 µM (inactive)

Ask: Field entry: O=C1Nc2ccccc2/C1=C1/SC(=S)N(NC(=O)c2cccc(O)c2)C1=O
Result: > 79.4 µM (inactive)

Ask: Field entry: O=C(Nc1nc(-c2ccc(S(=O)(=O)N3CCCC3)cc2)cs1)C1COc2ccccc2O1 (centres undefined)
Result: 31 µM (inactive)

Ask: Field entry: CCOC(=O)C1CCN(C(=O)CSc2c3c(nc4ccccc24)CCC3)CC1
Result: > 79.4 µM (inactive)
